- target.or.test.system: COX-1 (cyclooxygenase enzyme-1) (Ovis aries)
- Construct: gene PTGS1
- Sequence (P05979 25-600): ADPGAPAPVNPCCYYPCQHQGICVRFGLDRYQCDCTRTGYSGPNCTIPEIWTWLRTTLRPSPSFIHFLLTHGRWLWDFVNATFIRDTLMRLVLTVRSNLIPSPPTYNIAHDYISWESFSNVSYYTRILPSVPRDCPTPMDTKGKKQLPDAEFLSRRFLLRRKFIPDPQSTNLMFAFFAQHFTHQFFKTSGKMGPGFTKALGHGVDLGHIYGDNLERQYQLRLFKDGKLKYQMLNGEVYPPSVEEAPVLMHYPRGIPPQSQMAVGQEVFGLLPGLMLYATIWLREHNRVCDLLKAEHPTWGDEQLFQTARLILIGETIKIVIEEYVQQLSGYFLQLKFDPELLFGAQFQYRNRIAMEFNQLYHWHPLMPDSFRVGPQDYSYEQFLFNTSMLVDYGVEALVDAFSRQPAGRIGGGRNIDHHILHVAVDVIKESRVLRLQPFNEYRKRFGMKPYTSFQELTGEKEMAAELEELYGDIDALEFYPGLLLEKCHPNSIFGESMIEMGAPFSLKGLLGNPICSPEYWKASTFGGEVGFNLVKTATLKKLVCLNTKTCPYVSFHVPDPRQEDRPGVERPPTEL
- method: biochemical
- Design: In vitro cyclooxygenase (COX-1 and COX-2) enzyme inhibition assay, percent inhibition
- test.settings: read-out: % inhibition
assay.readout: inhibition at 25 µg/mL (%)

- CCCCC/C=C\C/C=C\C/C=C\C/C=C\CCCC(=O)O[C@H]1CC[C@@]2(C)C(=CC[C@H]3[C@@H]4CC[C@H]([C@H](C)CCCC(C)C)[C@@]4(C)CC[C@@H]32)C1 [compound 11, Cholesteryl arachidonate]: 74.7
- CCCCCCCC/C=C\CCCCCCCC(=O)O[C@H]1CC[C@@]2(C)C(=CC[C@H]3[C@@H]4CC[C@H]([C@H](C)CCCC(C)C)[C@@]4(C)CC[C@@H]32)C1 [Cholesteryl oleate^#]: 45.9
- CC[C@H](C)[C@H](N)C(=O)O: 23.3
